Provenance of the data: the supplement of paper PMC12042874

Assay: amyloid nucleation score (Sup35N fusion, yeast selection) (log enrichment); library NNK1; higher = more nucleation; inactive = no reads after selection;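 note: zero at mode of non-aggregating sequences after 7 days selection at 30°C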
As shown below, each of these sequences has a reported amyloid nucleation score value.
Parameter measured: amyloid nucleation score

{"columns": ["Query sequence", "Parameter measured", "Observed"],
 "data": [
  ["KLDMGVLPFANWSVDT", "amyloid nucleation score", -0.032],
  ["AHLAVPSQLNECFIVSLWV", "amyloid nucleation score", 0.328],
  ["LDQRKGPFSNSALRGHSWCN", "amyloid nucleation score", -0.506],
  ["IIREFSEGWVISKLDQD", "amyloid nucleation score", -0.446],
  ["TFWYLLNCVSRLFNF", "amyloid nucleation score", -0.013],
  ["CDVLELFKNTVGSFGGIVVS", "amyloid nucleation score", 0.204],
  ["CDSYELSQTAQRNNSTLRQS", "amyloid nucleation score", -0.359],
  ["TVTYLLCYYDSALYRCATGL", "amyloid nucleation score", 5.55],
  ["MLKMTVYFHIMID", "amyloid nucleation score", -0.065]
]}

====

Assay: amyloid nucleation score (Sup35N fusion, yeast selection) (log enrichment); library NNK2; higher = more nucleation; inactive = no reads after selection

{"columns": ["Substance", "amyloid nucleation score"],
 "data": [
  ["GAGLMALNLTHFVGGGLSTN", -0.179],
  ["LTTPLSRQVCMRFRAFNPEA", -0.655],
  ["ASRPWMMYPHESARRSR", 1.6],
  ["GPLSNLYTKYDANENDGFIL", -0.321],
  ["LKRYKVRQFSTCLWAGAYSQ", 0.407],
  ["NWPNPVSLMSRIDFRMV", -0.131],
  ["GVDDARTTKAGNWYSVRKGQ", 1.64],
  ["VRTLGGL", -0.653],
  ["LWSGFLSFVSNVPTFLYLS", -2.01],
  ["KRFIESNIVIQSDLTSLRRK", -0.184],
  ["EGTFGAPFVTSLLSLRFECV", -0.85],
  ["TDGDRFSCRVKWNRHEDQRT", 0.463],
  ["CDPFYTSLGCSSN", 2.85],
  ["AQAFLNGVGRLLVCTRTCRN", 0.895]
]}

====

Assay: amyloid nucleation score (Sup35N fusion, yeast selection) (log enrichment); library NNK1; higher = more nucleation; inactive = no reads after selection
Rule: amyloid nucleation score under 0.3 gives not satisfied, otherwise satisfied.

{"columns": ["Substance", "Category"],
 "data": [
  ["PSLLWAFTLS", "satisfied"],
  ["IRLKYSGHAILFHETKNKHA", "satisfied"],
  ["EGHARKKEWLTITPRER", "not satisfied"],
  ["LARTMYCYIVSEKVLWSGVG", "satisfied"],
  ["SGQMSLWSYL", "satisfied"],
  ["NLYYWYGTVSIWFYNRWFGV", "not satisfied"],
  ["FTLLAFGCNSENGG", "not satisfied"],
  ["IEYCIVSFQSMGE", "satisfied"],
  ["FHICGFRYSHLGREPMKFGI", "satisfied"],
  ["YFGMSY", "not satisfied"],
  ["TFYSCHP", "satisfied"],
  ["MENISLINGLETMYPIDRLT", "not satisfied"],
  ["SYTGHPMNDRWHIG", "satisfied"],
  ["INYGMRCYEE", "not satisfied"],
  ["HFICKLND", "satisfied"],
  ["AEHNYVRRELAGEPNLV", "satisfied"],
  ["GFFPGHHSFLEATSLVSSLF", "satisfied"],
  ["LWLRYGL", "satisfied"],
  ["NSLCYVVWVVVMTVNYYHHW", "satisfied"],
  ["LPWRRGWSFSTLVSLTGLSA", "satisfied"],
  ["RTVVQKKPVRCNMICNYWVF", "satisfied"],
  ["NALRVV", "not satisfied"],
  ["GASAEEIYCQP", "not satisfied"],
  ["RTCSKHYIWYKALIGFALGN", "not satisfied"],
  ["GGFAILNAREEHWGLKGSSM", "not satisfied"],
  ["MTAGLHQ", "satisfied"],
  ["LIFSNNWFYYTFYDS", "satisfied"],
  ["NQDFLTLALKWRCECFHTKL", "not satisfied"],
  ["QRMLHAYLCVNWAELTHIRV", "not satisfied"],
  ["SLYFFLFRCVCKRLYSGWNV", "not satisfied"],
  ["LVFLTYSSASARIPLRI", "not satisfied"],
  ["NTISMFDMLQISKTSQHQFA", "satisfied"],
  ["TYGKIMVN", "not satisfied"],
  ["MFAWLDDLFRY", "not satisfied"],
  ["FLNMASIFNFLHTNRF", "not satisfied"],
  ["NDDTLRSTKVIEHLFP", "satisfied"],
  ["CAVLLGSIVHMLFAYE", "not satisfied"],
  ["PMNNIVFYGGYLISAFRVRL", "satisfied"],
  ["STDVFYLV", "not satisfied"],
  ["KPGTNSYGCVYNHGFMGCTK", "not satisfied"]
]}

====

Assay: amyloid nucleation score (Sup35N fusion, yeast selection) (log enrichment); library NNK3; higher = more nucleation; inactive = no reads after selection
Parameter measured: amyloid nucleation score

{"columns": ["Query sequence", "Parameter measured", "Observed"],
 "data": [
  ["YCCSGMWVMRSVHSHEIGYL", "amyloid nucleation score", 0.966],
  ["HEMAYVVPTLVYYVYNTNSR", "amyloid nucleation score", -0.076]
]}

====

Test: amyloid nucleation score (Sup35N fusion, yeast selection) (log enrichment); library NNK3; higher = more nucleation; inactive = no reads after selection

{"columns": ["Substance", "amyloid nucleation score"],
 "data": [
  ["ACLCNNCLSLNPTWSCFLCL", 2.41],
  ["TAKTRC", -0.272]
]}

====

Assay: amyloid nucleation score (Sup35N fusion, yeast selection) (log enrichment); library NNK1; higher = more nucleation; inactive = no reads after selection
# amyloid nucleation score per record follows
Parameter measured: amyloid nucleation score

{"columns": ["Substance", "Observed"],
 "data": [
  ["KDVVISVGGMSVVLFSSRPH", 4.52],
  ["HTWMSLRGVAFTCQ", -0.13],
  ["WIAFERPAYVDSWHLTRNRP", 0.109],
  ["RVCKYGCAKT", 0.566],
  ["DSLFTIYMNSISFR", 5.83],
  ["VRNHVYGLCVSWTAGDKCNR", 5.03],
  ["DVYKKIFLRLNCYQVSMRIE", -0.697],
  ["AEVTDMGDLFSERMLSVVQI", -0.499],
  ["LPSDSFAVI", 0.483],
  ["LMDNCVRR", -1.06],
  ["QYYFLLYAKSDLSKWEHHQD", -0.282],
  ["LDDLPTILGVSEHSRSFVKV", -0.324],
  ["IHSAYLNAQRKVWATAKFKW", -0.639],
  ["GSLKEMEKHPWKKATTYQYA", 1.47],
  ["EKIQINQKG", 1.04],
  ["LVRWSLLRFFL", 1.89],
  ["KFTVVVAVSCRRLPSNICRI", 0.141],
  ["YSGRVTLWIVPMLHARH", -0.114],
  ["TSSCFMESRLK", 0.179],
  ["RRVNNKLRSTSGSTLTCCTY", 0.216],
  ["SIWKRLYFQVNGL", 0.925],
  ["SSRGRPLQPSIQIKYSFVMY", 4.13],
  ["NPAITGRFSYCT", 0.456],
  ["NVLTVCCVGLIKSSVSLIEN", 8.42],
  ["NHSLMGVSTSFWI", -0.334],
  ["TSVVVRSPRGVVEPKHYFCI", -1.19],
  ["VRSLAFTNVYFEEGAYVANT", -0.532],
  ["VLYTTLHGFYHNCWLWLRYS", -0.191],
  ["GPTRLDAEG", -0.54],
  ["FRGYSGL", 1.46],
  ["NMQLAPTGPNTVPISYDLFP", -1.46],
  ["AVEVLGPCRNLRVWSNLDLG", -0.072],
  ["DLEGMPELARDVGAKI", -0.825],
  ["FLDYKTSSGHRLYLDRAKES", -0.492],
  ["YMFWRGLVFKWVV", 0.667],
  ["CPRVKAHVRKNVFFSLVMSL", 0.296],
  ["LPGVFAPCSDYLMVMDVGHS", -0.409],
  ["SSSSYNSR", 0.97]
]}

====

Assay: amyloid nucleation score (Sup35N fusion, yeast selection) (log enrichment); library NNK3; higher = more nucleation; inactive = no reads after selection
Parameter measured: amyloid nucleation score

{"columns": ["Substance", "Observed"],
 "data": [
  ["PRASYMGRSKL", "inactive"],
  ["CHLPQRP", 0.989],
  ["VEELKYRHNALNFRKNVQSL", "inactive"],
  ["HPIANVV", "inactive"],
  ["IFTLCITGGV", "inactive"],
  ["LFGEGKFKYWMSVKKFGSGI", "inactive"],
  ["VGQYDTFGLRHHGGYRMRRG", "inactive"],
  ["RGIPDLVIY", "inactive"],
  ["RIFRCVEIA", "inactive"],
  ["MCYQNMR", "inactive"],
  ["VVGQKTIVGTLIHFSFKVLA", 1.26],
  ["HVLSVQTLYLFCKGLKESGT", 0.809],
  ["TIIRLIFIWAFFGSGICGRV", "inactive"],
  ["VLVICWFRDDGYSVFLCCQT", "inactive"],
  ["CSMVSWLIHCANMHRKTSTS", "inactive"],
  ["MVDVNLAKRNGMNQSLHGNS", "inactive"],
  ["NSGIFFLVMTSKLNAVLCLA", "inactive"],
  ["LGVHWNPFIWVSSDARQNSR", -0.089],
  ["CDLDLLHGWCGNKRMGSCGR", "inactive"],
  ["CISSCYWWFGFYVLKWE", "inactive"],
  ["RMGHVFMYDYHIV", "inactive"],
  ["YSKRSLDYI", "inactive"],
  ["SMCMRCLSVSKKKAQKSDEP", "inactive"],
  ["KLTVMVMQLASLRLAK", -0.158]
]}
